Source: patent US20190284262A1

target: T1, T2+EW (Homo sapiens, UniProt A*02:01); experiment: flow cytometry, phage on T2 + EW peptide; secondary only 310, unstained 93
T1 construct: on the surface of T2 cells; irrelevant control peptide; also called EW peptide/HLA-A*02:01 complex on T2 cells; T2 pulsed with EW peptide
endpoint: Median:FITC-A
Answer using only a numeral; do not append any unit.

Use the examples below as a reference point.
binder | endpoint result
EXT017-32 scFv phage clone (scFv, also called EXT017-32 phage; phage clone #32) scFv: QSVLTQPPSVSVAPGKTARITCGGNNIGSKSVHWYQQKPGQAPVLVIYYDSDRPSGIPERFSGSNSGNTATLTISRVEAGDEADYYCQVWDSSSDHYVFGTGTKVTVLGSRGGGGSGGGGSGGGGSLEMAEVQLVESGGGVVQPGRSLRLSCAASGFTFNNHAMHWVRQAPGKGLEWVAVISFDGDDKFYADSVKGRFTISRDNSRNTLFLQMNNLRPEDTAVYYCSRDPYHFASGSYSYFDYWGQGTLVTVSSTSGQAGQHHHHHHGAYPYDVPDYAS | 357
#29 (scFv, also called EXT017-29; EXT017-29 scFv phage clone) scFv (VL-linker-VH-His/HA tag): QSVLTQPPSVSAAPRQKVTISCSGSSSNIGNNYVSWYQQLPGTAPKLLIYDDNKRPSGIPDRFSGSKSGTSATLGITGLQTGDEADYYCGTWDSSLSAVVFGGGTKLTVLGSRGGGGSGGGGSGGGGSLEMAQVQLVQSGTEVKRAGASVKVSCKASGYTFTNYYMHWVRQAPGQGLEWMGIINPSIGSTNYAQKFQGRVTMTRDTSTSTVFMELSSLRSDDTAVYYCARSFGDSDGADSWGQGTLVTVSSTSGQAGQHHHHHHGAYPYDVPDYAS | 359

response.value for EXT017-26 scFv phage clone (scFv, also called phage clone #26) scFv: SYVLTQPPSVSVAPGQTARITCGGTDIRRKTVHWYQQKPGLAPVLVLYDDSDRPSGIPERFSGSNSGNTATLTISRVEGGDEADYYCQVWDNDNDHYVFGPGTKVTVLGSRGGGGSGGGGSGGGGSLEMAEVQLVQSGAEVKKPGASVKVSCKASGYTFTNYYIHWVRQTPGEGLEWMGIIRPSGGNTNYAQKFQGRVTMTRDTSTRTVYMELSSLRSEDTAVYYCARSWDTFSDEWGQGTLVTVSSTSGQAGQHHHHHHGAYPYDVPDYAS (field: Median:FITC-A) = 375

// sample EXT017-28 scFv phage clone (scFv, full-length scFv with His+HA tags; also called EXT017-28 phage; phage clone #28) scFv: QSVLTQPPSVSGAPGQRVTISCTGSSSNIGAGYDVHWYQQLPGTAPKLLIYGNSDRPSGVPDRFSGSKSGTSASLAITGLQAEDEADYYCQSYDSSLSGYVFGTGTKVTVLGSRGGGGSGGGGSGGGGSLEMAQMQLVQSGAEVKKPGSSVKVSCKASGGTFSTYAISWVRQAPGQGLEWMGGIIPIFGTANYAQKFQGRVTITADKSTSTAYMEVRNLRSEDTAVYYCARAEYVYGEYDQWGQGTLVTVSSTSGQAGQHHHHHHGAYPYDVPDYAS , its Median:FITC-A was 338
